# TESTED TARGET: T1, human IL-12RB2 with C-terminal HA tag, transiently expressed on HEK-293T cells (human, UniProt Q99665 24-862)
# T1 construct: whole, on cells; also called human IL-12Rβ2
# T1 sequence (looked up): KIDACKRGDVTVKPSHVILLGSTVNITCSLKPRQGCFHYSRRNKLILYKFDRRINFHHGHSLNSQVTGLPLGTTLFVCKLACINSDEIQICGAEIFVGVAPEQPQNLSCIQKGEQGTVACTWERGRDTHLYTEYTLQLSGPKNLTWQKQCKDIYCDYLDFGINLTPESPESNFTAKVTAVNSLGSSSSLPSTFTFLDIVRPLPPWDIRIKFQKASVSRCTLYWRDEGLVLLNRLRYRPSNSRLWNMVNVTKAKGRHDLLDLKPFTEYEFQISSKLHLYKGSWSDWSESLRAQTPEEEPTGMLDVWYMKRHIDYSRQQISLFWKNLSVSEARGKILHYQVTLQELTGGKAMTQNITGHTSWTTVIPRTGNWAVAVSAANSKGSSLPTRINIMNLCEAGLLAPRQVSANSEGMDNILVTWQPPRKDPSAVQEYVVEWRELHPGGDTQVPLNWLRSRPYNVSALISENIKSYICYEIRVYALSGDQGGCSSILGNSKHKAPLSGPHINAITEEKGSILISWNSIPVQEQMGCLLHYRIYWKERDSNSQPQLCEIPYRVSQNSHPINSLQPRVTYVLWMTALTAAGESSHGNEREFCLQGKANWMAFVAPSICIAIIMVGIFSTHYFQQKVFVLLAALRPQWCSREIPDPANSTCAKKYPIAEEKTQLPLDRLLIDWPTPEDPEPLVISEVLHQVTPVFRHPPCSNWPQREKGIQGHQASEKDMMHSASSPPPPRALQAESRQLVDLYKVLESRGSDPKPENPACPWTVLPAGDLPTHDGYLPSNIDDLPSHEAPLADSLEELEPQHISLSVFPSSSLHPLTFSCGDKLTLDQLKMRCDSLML
# PROTOCOL: FACS, periplasmic extract, HEK-293T
Could you please report measured FOB for the items listed next?

I would be grateful if you could share the reported FOB for VHH211B2 (VHH) VHH: QVQLVESGGGLVQAGNSLRLSCAASGRTFSSYVVGWFRQAPGKEREFVGRISWSGARTYYADSVKGRFTISRDNAKNTVYLQMNSLKPEDTAVYYCAADLKWEVLLSEHFEYWGQGTQVTVSS .
1.64 fold

VHH64B2 (VHH) VHH: QVQLVESGGGLVQPGGSLRLSCAASGFTFSSKAMHWFRQAPGKGLEWVSSINSGGAITYYKDSVKGRFTVSRDNAKNILYLEMNSLKPEDTALYYCATDTDGRTRGQGTQVTVSS ?
1.68 fold

VHH222B2 (VHH) VHH: QVQLVESGGGLVQAGGSLRLSCAASGRIFSAYRMGWFRQAPGKEREFVAGITWRGQTTYYAASVKGRFTISKDNAKKTVYLQMNSLKPEETAVYYCAVETNGLGRWDRPSEYDYWGQGTQVTVSS ?
3.17 fold

VHH94B2 (VHH) VHH: EVQLVESGGGLVQPGGSLRLSCAASGFTFSSYAMSWVRQAPGKGLEWVSAINSGGDSTSYADSVEGRFTISRDNAKNTLYLQMNSLKPDDTAVYYCAKWSDCSEYGCYDQTTTEGTQVTVSS ?
3.19 fold

VHH322B2 (VHH) VHH: QLQLVESGGGLVQAGGSLRLSCAASGRTFGIHGMGWFRQAPGKEREFAAAIRWSDGTTIHADSVKGRLTISRDNAKNTVYLQMNSLKPEDTAVYYCAATSNPQFGRNWYTVAAGVEYGYWGQGTQVTVSS ?
1.99 fold

VHH85B2 (VHH) VHH: QVQLVESGGGLVQAGGSLRVSCAASGRIPSLNTMAWYRQAPGKQREFVAFITNGGTTNYVDSVEGRFSISRDNTKNAVDLQMNSLKPEDTGVYYCNVQISQYPYNYWGQGTQVTVSS ?
1.64 fold
